test.name: Half life in dog hepatocytes
Format: ADME, cell-based, Canis lupus familiaris, Hepatocyte
measured.endpoint: half-life

Exercise: Report half-life for COC(=O)N[C@H](C(=O)N1CCC[C@H]1c1ncc(-c2ccc(-c3ccc(-c4cnc([C@@H]5CC6(CN5C(=O)[C@@H](NC(=O)OC)C(C)C)OCCO6)[nH]4)cc3)cc2)[nH]1)C(C)C please.
Key: ≥ 6 h

----------
// EC50 lookup, one value per entry
Test system: Hepatitis C virus
test.name: Antiviral activity against Hepatitis C virus genotype 1b in Huh-luc/neo-ET replicon cells after 48 hrs by replicon-based luciferase assay
Type: functional, organism-based, Hepacivirus hominis
Note: unit nM is implicit; provide only the numeric part.

compound="COC(=O)N[C@H](C(=O)N1CC2(CC1c1ncc(-c3ccc(-c4ccc(-c5cnc([C@@H]6CCCN6C(=O)[C@@H](NC(=O)OC)C(C)C)[nH]5)cc4)cc3)[nH]1)CN(S(C)(=O)=O)C2)C(C)C (mixture of isomers)" units_label=nM observed=0.0501
compound="COC(=O)N[C@H](C(=O)N1CCC[C@H]1c1ncc(-c2ccc(-c3ccc(-c4cnc(C5CCC6(CCC(F)(F)CC6)N5C(=O)[C@@H](NC(=O)OC)C(C)C)[nH]4)cc3)cc2)[nH]1)C(C)C (stereo partly drawn)" units_label=nM observed=0.0158
compound=O=C(NC1CC1)c1ccc(-c2csc(NC(=O)[C@@H]3CCCN3C(=O)OCc3ccccc3)n2)cc1 units_label=nM observed=126
compound=COC(=O)N[C@H](C(=O)N1CCC[C@H]1c1ncc(-c2ccccc2)[nH]1)C(C)C units_label=nM observed=200
compound="COC(=O)N[C@H](C(=O)N1CC2(CCN(C(=O)OC)CC2)CC1c1ncc(-c2ccc(-c3ccc(-c4cnc([C@@H]5CCCN5C(=O)[C@@H](NC(=O)OC)C(C)C)[nH]4)cc3)cc2)[nH]1)C(C)C (mixture of isomers)" units_label=nM observed=0.0158
compound=COC(=O)N[C@H](C(=O)N1CCC[C@H]1c1ncc(-c2ccc(-c3ccc(-c4cnc([C@@H]5CC6(CCC(F)(F)CC6)CN5C(=O)[C@@H](NC(=O)OC)C(C)C)[nH]4)cc3)cc2)[nH]1)C(C)C units_label=nM observed=0.00251

Exercise: Given COC(=O)N[C@H](C(=O)N1CCC[C@H]1c1ncc(-c2ccc(-c3ccc(-c4cnc([C@@H]5CC6(CN5C(=O)[C@@H](NC(=O)OC)C(C)C)OCCCO6)[nH]4)cc3)cc2)[nH]1)C(C)C , state its recorded EC50.
Key: 0.00794

Exercise: Record request: EC50 value, item COC(=O)N[C@H](C(=O)N1CC2(CCN(C(=O)OC(C)(C)C)CC2)CC1c1ncc(-c2ccc(-c3ccc(-c4cnc([C@@H]5CCCN5C(=O)[C@@H](NC(=O)OC)C(C)C)[nH]4)cc3)cc2)[nH]1)C(C)C (mixture of isomers)
Key: 0.0398

Exercise: I'd like to know its EC50. The compound in question is COC(=O)N[C@H](C(=O)N1CC2(CCOCC2)C[C@H]1c1ncc(-c2ccc(-c3ccc(-c4cnc([C@@H]5CC6(CCOCC6)CN5C(=O)[C@@H](NC(=O)OC)C(C)C)[nH]4)cc3)cc2)[nH]1)C(C)C
Key: 0.0126

Exercise: What does the data say about its EC50? Entry: CNC(=O)N1CC2(CC(c3ncc(-c4ccc(-c5ccc(-c6cnc([C@@H]7CCCN7C(=O)[C@@H](NC(=O)OC)C(C)C)[nH]6)cc5)cc4)[nH]3)N(C(=O)[C@@H](NC(=O)OC)C(C)C)C2)C1 (mixture of isomers)
Key: 0.251

Exercise: // EC50 lookup, key: COC(=O)N[C@H](C(=O)N1CCC[C@H]1c1ncc(-c2ccc(-c3ccc(-c4cnc([C@@H]5CC6(CN5C(=O)[C@@H](NC(=O)OC)C(C)C)O[C@@H](C)C[C@H](C)O6)[nH]4)cc3)cc2)[nH]1)C(C)C (stereo partly drawn)
Key: 0.0126

----------
Test system: Hepatitis C virus
test.name: Antiviral activity against Hepatitis C virus genotype 1b in Huh-luc/neo-ET replicon cells after 48 hrs by replicon-based luciferase assay
Assay type: functional, organism-based, Hepacivirus hominis
Parameter log10 of EC50: see the listing below.
Remember, log10 of EC50, in nM.

molecule=COC(=O)N[C@H](C(=O)N1CCC[C@H]1c1ncc(-c2ccc(-c3ccc(-c4cnc([C@@H]5COC6(CCOCC6)N5C(=O)OCc5ccccc5)[nH]4)cc3)cc2)[nH]1)C(C)C measured_endpoint="log10 of EC50" observed=-2.70

Exercise: Consider the molecule COC(=O)N[C@H](C(=O)N1CC2(CC1c1ncc(-c3ccc(-c4ccc(-c5cnc([C@@H]6CCCN6C(=O)[C@@H](NC(=O)OC)C(C)C)[nH]5)cc4)cc3)[nH]1)CN(C(C)=O)C2)C(C)C (mixture of isomers) and give its measured log10 of EC50.
Key: -0.80

Exercise: Endpoint output: log10 of EC50 of COC(=O)N[C@H](C(=O)N1CCC[C@H]1c1ncc(-c2ccc(-c3ccc(-c4cnc(C5CCC6(CCS(=O)(=O)CC6)N5C(=O)[C@@H](NC(=O)OC)C(C)C)[nH]4)cc3)cc2)[nH]1)C(C)C (some centres not stated) . Value?
Key: -0.50

Exercise: Item under review: COC(=O)N[C@H](C(=O)N1CC2(CCNCC2)CC1c1ncc(-c2ccc(-c3ccc(-c4cnc([C@@H]5CCCN5C(=O)[C@@H](NC(=O)OC)C(C)C)[nH]4)cc3)cc2)[nH]1)C(C)C (mixture of isomers) . Reported log10 of EC50?
Key: 0.20

Exercise: I'd like to know its log10 of EC50. The molecule in question is COC(=O)N[C@H](C(=O)N1CC2(CCOCC2)CC1c1ncc(-c2ccc(-c3ccc(-c4cnc([C@@H]5CCCN5C(=O)[C@@H](NC(=O)OC)C(C)C)[nH]4)cc3)cc2)[nH]1)C(C)C (mixture of isomers)
Key: -1.80

Exercise: Param item = COC(=O)N[C@H](C(=O)N1CCC[C@H]1c1ncc(-c2ccc(-c3ccc(-c4cnc([C@@H]5CC6(CN5C(=O)[C@@H](NC(=O)OC)C(C)C)SCCS6)[nH]4)cc3)cc2)[nH]1)C(C)C ; retrieve measured log10 of EC50.
Key: -2.40

Exercise: Need log10 of EC50, item CN(C)[C@@H](C(=O)N1CCC[C@H]1c1ncc(-c2ccc(-c3ccc(-c4cnc([C@@H]5COC6(CCOCC6)N5C(=O)OCc5ccccc5)[nH]4)cc3)cc2)[nH]1)c1ccccc1
Key: -2.20
